Target: NDH-1 (Complex I) (Escherichia coli)
Assay: NDH-1 NADH oxidase activity in membrane vesicles
measure-name: pIC50
One number for each entry, as −log10 of the molar value.

Q: Supply pIC50 value. Item: O=c1c(O)cc([C@H]2Oc3cc(O)cc(O)c3C[C@H]2O)cc2c([C@H]3Oc4cc(O)cc(O)c4C[C@H]3O)cc(O)c(O)c12
Ans: 4.35

====

Biological target: NDH-2 (alternative NADH dehydrogenase) (Escherichia coli, UniProt P00393)
Sequence (P00393 whole entry): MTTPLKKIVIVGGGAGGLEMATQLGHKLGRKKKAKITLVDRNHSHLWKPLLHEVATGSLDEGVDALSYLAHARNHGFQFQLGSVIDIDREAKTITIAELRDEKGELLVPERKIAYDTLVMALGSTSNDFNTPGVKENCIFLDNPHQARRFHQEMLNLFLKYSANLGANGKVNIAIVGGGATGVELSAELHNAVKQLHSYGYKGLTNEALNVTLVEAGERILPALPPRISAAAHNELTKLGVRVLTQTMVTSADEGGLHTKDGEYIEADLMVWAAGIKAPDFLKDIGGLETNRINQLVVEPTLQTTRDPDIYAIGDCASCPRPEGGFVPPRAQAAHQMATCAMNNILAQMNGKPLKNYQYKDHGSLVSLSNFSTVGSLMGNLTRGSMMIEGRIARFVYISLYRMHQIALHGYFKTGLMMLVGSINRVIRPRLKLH
Experiment: NDH-2 NADH oxidase activity in membrane vesicles of strain BA14
Format: biochemical, E. coli
Settings: read-out: NDH-2 NADH oxidase IC50; strain BA14 membranes, 250 μM NADH
What IC50 was measured for each of the following?
One number for each entry, in µM.

molecule	reported-result
O=C(O[C@@H]1Cc2c(O)cc(O)cc2O[C@@H]1c1cc(O)c(O)c2c(=O)c(O)cc([C@H]3Oc4cc(O)cc(O)c4C[C@H]3O)cc12)c1cc(O)c(O)c(O)c1 [TF2B, theaflavin-3′-gallate]	2.5

Consider the additional molecule presented here.
Q: Supply IC50 value. Item: O=C(O[C@@H]1Cc2c(O)cc(O)cc2O[C@@H]1c1cc(=O)c(O)c2c(O)c(O)cc([C@H]3Oc4cc(O)cc(O)c4C[C@H]3O)c2c1)c1cc(O)c(O)c(O)c1 [TF2A, theaflavin-3-gallate]
Ans: 3.5

====

Biological target: NDH-2 (alternative NADH dehydrogenase) (Escherichia coli, UniProt P00393)
Assay: NDH-2 NADH oxidase activity in membrane vesicles of strain BA14
Format: biochemical, E. coli
measure-name: pIC50
Numbers only, as −log10 of the molar value.

Q: Supply pIC50 value. Item: O=c1c(O)cc([C@H]2Oc3cc(O)cc(O)c3C[C@H]2O)cc2c([C@H]3Oc4cc(O)cc(O)c4C[C@H]3O)cc(O)c(O)c12
Ans: 5.52
